Attribute: IC50
- assay_system: EGFR (L858R T790M C797S) (Homo sapiens, UniProt P00533, C797S/L858R/T790M)
- Sequence (P00533 25-1210 T790M/C797S/L858R): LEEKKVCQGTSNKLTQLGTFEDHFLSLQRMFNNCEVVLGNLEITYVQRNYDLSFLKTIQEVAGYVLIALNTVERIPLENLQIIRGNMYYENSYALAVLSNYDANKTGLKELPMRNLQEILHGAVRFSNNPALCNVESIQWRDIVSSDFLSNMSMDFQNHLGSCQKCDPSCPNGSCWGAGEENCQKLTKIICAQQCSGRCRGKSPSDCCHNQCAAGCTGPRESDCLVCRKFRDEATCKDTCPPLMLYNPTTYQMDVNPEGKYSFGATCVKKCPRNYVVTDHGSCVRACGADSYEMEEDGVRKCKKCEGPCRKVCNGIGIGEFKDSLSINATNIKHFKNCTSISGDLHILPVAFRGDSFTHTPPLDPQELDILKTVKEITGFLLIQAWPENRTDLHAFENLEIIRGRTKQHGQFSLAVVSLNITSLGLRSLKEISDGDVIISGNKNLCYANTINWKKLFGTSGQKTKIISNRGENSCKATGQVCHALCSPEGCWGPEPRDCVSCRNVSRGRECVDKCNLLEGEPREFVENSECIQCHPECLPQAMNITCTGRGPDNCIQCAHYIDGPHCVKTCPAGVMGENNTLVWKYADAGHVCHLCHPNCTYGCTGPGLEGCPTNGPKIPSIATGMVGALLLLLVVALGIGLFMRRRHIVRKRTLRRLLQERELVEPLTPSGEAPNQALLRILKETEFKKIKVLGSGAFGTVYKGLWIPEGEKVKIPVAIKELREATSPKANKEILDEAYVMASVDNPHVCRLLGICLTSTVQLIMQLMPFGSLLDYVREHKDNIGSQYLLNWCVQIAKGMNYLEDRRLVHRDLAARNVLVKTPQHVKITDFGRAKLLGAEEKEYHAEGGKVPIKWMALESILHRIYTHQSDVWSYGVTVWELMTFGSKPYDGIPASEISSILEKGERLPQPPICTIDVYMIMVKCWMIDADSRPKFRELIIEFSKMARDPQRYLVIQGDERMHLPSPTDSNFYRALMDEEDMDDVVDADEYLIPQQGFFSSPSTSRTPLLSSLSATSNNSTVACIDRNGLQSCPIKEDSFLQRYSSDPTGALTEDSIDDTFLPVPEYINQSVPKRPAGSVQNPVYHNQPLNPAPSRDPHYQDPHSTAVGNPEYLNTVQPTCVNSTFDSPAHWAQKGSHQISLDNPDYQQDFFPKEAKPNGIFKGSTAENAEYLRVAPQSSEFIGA
- test_summary: Biochemical EGFR inhibition assay (Caliper mobility shift), EGFR LRTMCS mutant
- condition_notes: inhibitory activity against EGFR LRTMCS mutant; apparent IC50; read-out: Ext Enz LRTMCS

| compound | assay_system | assay_result |
| --- | --- | --- |
| CCS(=O)(=O)C[C@H]1CN(c2ccc(F)c3cc(Nc4ccnc(N5CC[C@@H](OC)[C@@H](F)C5)n4)ncc23)[C@@H]1C [Compound 85] | EGFR (L858R T790M C797S) (Homo sapiens, UniProt P00533, C797S/L858R/T790M) | ≤ 15 nM |
| CO[C@H]1CCN(c2nccc(Nc3cc4c(C(C)C)ccc(N5C[C@H](CS(C)(=O)=O)[C@H]5C)c4cn3)n2)C[C@@H]1N (single isomer, unassigned) [Compound 89] | EGFR (L858R T790M C797S) (Homo sapiens, UniProt P00533, C797S/L858R/T790M) | ≤ 15 nM |
| CCS(=O)(=O)CC1CN(c2ccc(C(C)C)c3cc(Nc4ccnc(N5CC[C@@](C)(O)[C@@H](F)C5)n4)ncc23)C1 [Compound 276] | EGFR (L858R T790M C797S) (Homo sapiens, UniProt P00533, C797S/L858R/T790M) | ≤ 15 nM |
| CC(C)c1ccc(N2C[C@H](CS(C)(=O)=O)[C@H]2C)c2cnc(Nc3ccnc(N4CCN(C)CC4)n3)cc12 [Compound 16] | EGFR (L858R T790M C797S) (Homo sapiens, UniProt P00533, C797S/L858R/T790M) | 20.1 to 30 nM |
| CO[C@H]1CN(c2nccc(Nc3cc4c(C(C)C)ccc(N5CC(CS(C)(=O)=O)C5)c4cn3)n2)C[C@@H](F)[C@H]1O (racemic) [Compound 147] | EGFR (L858R T790M C797S) (Homo sapiens, UniProt P00533, C797S/L858R/T790M) | ≤ 15 nM |

Identify measured IC50 associated with CC(C)c1ccc(N2CC(CS(C)(=O)=O)C2)c2cnc(Nc3ccnc(N4CC[C@H](O)[C@H](C)C4)n3)cc12 (single isomer, unassigned) [Compound 19]
15.1 to 20 nM

Identify measured IC50 associated with CC(C)c1ncc(N2C[C@H](CS(C)(=O)=O)[C@H]2C)c2cnc(Nc3ccnc(N4CC[C@](C)(O)[C@H](F)C4)n3)cc12 (single isomer, unassigned) [Compound 136]
≤ 15 nM

Identify measured IC50 associated with CC(C)c1ccc(N2CC(CS(C)(=O)=O)C2)c2cnc(Nc3ccnc(N4CC[C@](C)(O)[C@H](F)C4)n3)cc12 (single isomer, unassigned) [Compound 57]
≤ 15 nM

Identify measured IC50 associated with CCS(=O)(=O)C[C@H]1CN(c2ccc(C(C)C)c3cc(Nc4ccnc(N5CC[C@@H](OCCO)C(F)(F)C5)n4)ncc23)[C@@H]1C (single isomer, unassigned) [Compound 302]
15.1 to 20 nM

Identify measured IC50 associated with CC(C)c1ccc(N2C[C@H](CS(C)(=O)=O)[C@H]2C)c2cnc(Nc3ccnc(N4CC[C@@H](OCCN(C)C)C(F)(F)C4)n3)cc12 (single isomer, unassigned) [Compound 305]
≤ 15 nM

Identify measured IC50 associated with CO[C@H]1CCN(c2nccc(Nc3cc4c(C(C)C)ccc(N5C[C@H](CS(C)(=O)=O)[C@H]5C)c4cn3)n2)C[C@@H]1O (single isomer, unassigned) [Compound 92]
≤ 15 nM
